For each entry below, report its ΔR/ΔRAD2 OA value.
- ASSAY_PROTOCOL: Probe fluorescence ratio response to oleate:BSA complex, relative to ADIFAB2 (ΔR/ΔRAD2)
- Assay type: binding
- CONDITION_INFO: fluorescence response (R-Ro) relative to ADIFAB2; oleate

Record request: ΔR/ΔRAD2 OA value, item R106W, L72A: acrylodan-labeled rI-FABP mutein R106W, L72A (protein) AFDGTWKVDRNENYEKFMEKMGINVVKRKLGAHDNLKLTITQEGNKFTVKESSNFRNIDVVFELGVDFAYSAADGTELTGTWTMEGNKLVGKFKRVDNGKELIAVWEISGNELIQTYTYEGVEAKRIFKKE 0.99

Record request: ΔR/ΔRAD2 OA value, item L2P8A5: acrylodan-labeled rI-FABP-L72A mutein: M18 V, G31 A, F55 W, A73 W (protein, UniProt P02693 2-132, looked up, variant M18V G31A F55W L72A A73W, acrylodan label) Fatty acid-binding protein, …: AFDGTWKVDRNENYEKFVEKMGINVVKRKLAAHDNLKLTITQEGNKFTVKESSNWRNIDVVFELGVDFAYSAWDGTELTGTWTMEGNKLVGKFKRVDNGKELIAVREISGNELIQTYTYEGVEAKRIFKKE 0.9

Record request: ΔR/ΔRAD2 OA value, item L1P12 G10: acrylodan-labeled rI-FABP mutein: Y14 I, L38 wt, L72 wt, Y117 wt (protein, UniProt P02693 2-132, looked up, variant Y14I, acrylodan label) Fatty acid-binding protein, …: AFDGTWKVDRNENIEKFMEKMGINVVKRKLGAHDNLKLTITQEGNKFTVKESSNFRNIDVVFELGVDFAYSLADGTELTGTWTMEGNKLVGKFKRVDNGKELIAVREISGNELIQTYTYEGVEAKRIFKKE 0.5
